- experimental_target: Amyloid-beta precursor protein (Homo sapiens) (UniProt P05067)
- Sequence (P05067 whole entry): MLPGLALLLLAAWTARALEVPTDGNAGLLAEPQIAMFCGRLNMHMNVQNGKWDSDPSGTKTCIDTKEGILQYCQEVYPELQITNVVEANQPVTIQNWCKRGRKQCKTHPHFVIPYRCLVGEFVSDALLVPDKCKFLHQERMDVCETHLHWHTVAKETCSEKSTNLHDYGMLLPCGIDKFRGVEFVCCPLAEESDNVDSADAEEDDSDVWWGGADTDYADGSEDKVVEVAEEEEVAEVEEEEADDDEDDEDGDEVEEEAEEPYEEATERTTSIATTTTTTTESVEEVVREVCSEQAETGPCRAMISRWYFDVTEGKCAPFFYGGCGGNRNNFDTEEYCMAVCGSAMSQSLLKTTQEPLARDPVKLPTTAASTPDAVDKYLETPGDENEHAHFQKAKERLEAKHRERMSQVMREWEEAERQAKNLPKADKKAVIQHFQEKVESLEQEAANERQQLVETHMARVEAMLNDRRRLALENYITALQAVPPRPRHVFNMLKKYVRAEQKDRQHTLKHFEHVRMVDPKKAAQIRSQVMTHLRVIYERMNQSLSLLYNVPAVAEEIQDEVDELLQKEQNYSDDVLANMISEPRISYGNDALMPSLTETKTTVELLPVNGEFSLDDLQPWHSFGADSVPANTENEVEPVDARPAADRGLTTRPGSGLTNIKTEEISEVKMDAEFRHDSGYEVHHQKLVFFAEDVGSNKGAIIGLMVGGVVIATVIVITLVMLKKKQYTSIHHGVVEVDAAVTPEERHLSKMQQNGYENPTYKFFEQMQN
- test_protocol: Inhibition of amyloid beta40 (unknown origin) aggregation at 10 uM measured every 5 mins by ThT fluorescence based assay relative to control
Tag: label 1 if measured inhibition is not below 90%, label 0 if it is.

Please review the following examples before continuing.
CN(CCOCCN1c2ccccc2Sc2ccccc21)C(CCN)C(=O)NCc1ccccc1 (stereo not given)	label 1
CN(CCOCCN1c2ccccc2Sc2ccccc21)C(CCN)C(=O)NCc1ccc(Cl)cc1 (stereo not given)	label 1
CN(CCOCCn1c2ccccc2c2ccccc21)C(CCN)C(=O)NCc1ccc(F)cc1 (stereo not given)	label 1
O=C(NCCCCCCCCNc1c2c(nc3cc(Cl)ccc13)CCCC2)c1ccc2nc(-c3ccc(Cl)cc3)c3c(c2c1)NCCC3	label 0
CN(CCOCCN1c2ccccc2Sc2ccccc21)C(CCN)C(=O)NCc1ccccc1Cl (stereo not given)	label 0
CN(CCOCCn1c2ccccc2c2ccccc21)C(CCN)C(=O)NCc1ccccc1 (stereo not given)	label 0
CN(CCOCCN1c2ccccc2Sc2ccccc21)C(CCN)C(=O)NCc1ccc(F)cc1 (stereo not given)	label 0
CN(CCC=C1c2ccccc2-c2ccccc21)C(CCO)C(=O)NCc1ccc(F)cc1 (stereo not given)	label 0

Now take the following compound into account.
Please check the record CN(CCC=C1c2ccccc2-c2ccccc21)C(CCO)C(=O)NCc1ccccc1 (stereo not given) and state if its inhibition is at or above 90%.
label 0

* * *

- experimental_target: Acetylcholinesterase (Electrophorus electricus) (UniProt O42275)
- Sequence (O42275 24-633 limits assumed): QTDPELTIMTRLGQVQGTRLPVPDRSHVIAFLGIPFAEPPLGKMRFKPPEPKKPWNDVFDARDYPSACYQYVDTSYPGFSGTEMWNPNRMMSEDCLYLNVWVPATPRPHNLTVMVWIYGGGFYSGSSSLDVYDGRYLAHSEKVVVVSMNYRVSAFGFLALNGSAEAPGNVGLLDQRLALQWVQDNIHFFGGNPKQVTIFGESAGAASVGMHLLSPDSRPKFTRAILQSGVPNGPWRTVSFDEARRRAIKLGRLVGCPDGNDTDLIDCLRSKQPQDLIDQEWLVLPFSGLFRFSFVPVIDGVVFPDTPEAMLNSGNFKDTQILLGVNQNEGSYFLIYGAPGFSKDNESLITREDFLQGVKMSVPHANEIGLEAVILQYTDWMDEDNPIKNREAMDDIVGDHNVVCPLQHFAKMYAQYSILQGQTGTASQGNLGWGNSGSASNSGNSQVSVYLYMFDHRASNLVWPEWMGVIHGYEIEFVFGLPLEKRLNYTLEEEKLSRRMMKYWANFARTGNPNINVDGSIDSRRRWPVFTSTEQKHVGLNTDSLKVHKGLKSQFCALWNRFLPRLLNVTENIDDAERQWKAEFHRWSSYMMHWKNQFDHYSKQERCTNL
- test_protocol: Inhibition of electric eel AChE using acetylthiocholine iodide as substrate at 10 uM preincubated for 5 mins followed by substrate addition and measured after 5 mins by DTNB reagent based Ellman's method relative to control
- test_conditions: time 10.0 min
Give inhibition for every item shown.

These recorded examples may help you get a feel for the data.
CN(CCC=C1c2ccccc2CCc2ccccc21)C(CCN)C(=O)NCc1ccc(F)cc1 (stereo not drawn)	21%
CN(CCOCCN1c2ccccc2Sc2ccccc21)C(CCN)C(=O)NCc1ccccc1 (stereo not drawn)	< 10%
CN(CCC=C1c2ccccc2CCc2ccccc21)C(CCO)C(=O)NCc1ccccc1Cl (stereo not drawn)	11%
CN(CCOCCn1c2ccccc2c2ccccc21)C(CCN)C(=O)NCc1ccc(F)cc1 (stereo not drawn)	< 10%
CC(=O)NCCC(C(=O)NCc1ccccc1Cl)N(C)CCOCCN1c2ccccc2Sc2ccccc21 (stereo not drawn)	< 10%
CN(CCC=C1c2ccccc2C=Cc2ccccc21)C(CO)C(=O)NCc1ccccc1Cl (stereo not drawn)	12%
CC(=O)NCCC(C(=O)NCc1ccc(F)cc1)N(C)CCOCCN1c2ccccc2Sc2ccccc21 (stereo not drawn)	< 10%
Cc1ccc(CNC(=O)C(CO)N(C)CCC=C2c3ccccc3C=Cc3ccccc32)cc1 (stereo not drawn)	30%
CC(=O)NCCC(C(=O)NCc1ccccc1)N(C)CCOCCN1c2ccccc2Sc2ccccc21 (stereo not drawn)	< 10%
CN(CCC=C1c2ccccc2CCc2ccccc21)C(CO)C(=O)NCc1ccc(Cl)cc1 (stereo not drawn)	< 10%

For every item in the list below, what is its measured inhibition?
1. CN(CCOCCN1c2ccccc2Sc2ccccc21)C(CCO)C(=O)NCc1ccccc1 (stereo not drawn)
2. Cc1ccc(CNC(=O)C(CO)N(C)CCC=C2c3ccccc3CCc3ccccc32)cc1 (stereo not drawn)

< 10%
< 10%

State the recorded inhibition for every item in the following list.
1. CN(CCOCCN1c2ccccc2Sc2ccccc21)C(CCO)C(=O)NCc1ccc(F)cc1 (stereo not drawn)
2. CC(=O)NCCC(C(=O)NCc1ccc(F)cc1)N(C)CCC=C1c2ccccc2CCc2ccccc21 (stereo not drawn)
3. CN(CCC=C1c2ccccc2C=Cc2ccccc21)C(CO)C(=O)NCc1ccc(Cl)cc1 (stereo not drawn)
4. CN(CCC=C1c2ccccc2C=Cc2ccccc21)C(CO)C(=O)NCc1ccccc1 (stereo not drawn)
5. Cc1ccc(CNC(=O)C(CCO)N(C)CCC=C2c3ccccc3CCc3ccccc32)cc1 (stereo not drawn)
6. CN(CCC=C1c2ccccc2-c2ccccc21)C(CCO)C(=O)NCc1ccc(F)cc1 (stereo not drawn)
7. CN(CCC=C1c2ccccc2CCc2ccccc21)C(CCO)C(=O)NCc1ccc(F)cc1 (stereo not drawn)

1. < 10%
2. < 10%
3. 11%
4. < 10%
5. < 10%
6. < 10%
7. < 10%

* * *

The following compounds have recorded IC50 on Cholinesterase (Equus caballus, UniProt P81908).
Sequence (P81908 whole entry): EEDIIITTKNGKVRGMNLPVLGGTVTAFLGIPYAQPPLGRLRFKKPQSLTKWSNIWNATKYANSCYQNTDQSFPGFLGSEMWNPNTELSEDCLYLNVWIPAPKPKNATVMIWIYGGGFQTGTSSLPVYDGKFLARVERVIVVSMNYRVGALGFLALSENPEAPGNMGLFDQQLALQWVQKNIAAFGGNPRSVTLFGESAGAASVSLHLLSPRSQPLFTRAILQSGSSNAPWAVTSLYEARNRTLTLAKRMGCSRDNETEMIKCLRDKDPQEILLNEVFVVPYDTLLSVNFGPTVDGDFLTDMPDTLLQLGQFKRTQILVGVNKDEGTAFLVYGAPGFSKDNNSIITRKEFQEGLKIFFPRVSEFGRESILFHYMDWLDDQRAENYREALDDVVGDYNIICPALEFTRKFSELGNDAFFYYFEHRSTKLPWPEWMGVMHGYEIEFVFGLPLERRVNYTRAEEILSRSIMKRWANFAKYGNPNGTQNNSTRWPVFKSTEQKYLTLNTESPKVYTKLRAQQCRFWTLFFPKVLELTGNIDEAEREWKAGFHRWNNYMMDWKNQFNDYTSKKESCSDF
Give bare numbers, in nM.

# count of solved cases: 3
CN(CCOCCN1c2ccccc2Sc2ccccc21)C(CCN)C(=O)NCc1ccccc1Cl (stereo not given)	411
CC(=O)NCCC(C(=O)NCc1ccc(Cl)cc1)N(C)CCOCCN1c2ccccc2Sc2ccccc21 (stereo not given)	4700
CN(CCC=C1c2ccccc2C=Cc2ccccc21)C(CO)C(=O)NCc1ccc(F)cc1 (stereo not given)	3240

Would you mind giving IC50 for every compound in the list below?
1. Cc1ccc(CNC(=O)C(CCN)N(C)CCC=C2c3ccccc3CCc3ccccc32)cc1 (stereo not given)
2. CN(CCOCCN1c2ccccc2Sc2ccccc21)C(CCO)C(=O)NCc1ccccc1Cl (stereo not given)
3. CN(CC/C=C/c1ccccc1-c1ccccc1)C(CO)C(=O)NCc1ccccc1Cl (stereo not given)
4. CN(CCOCCN1c2ccccc2Sc2ccccc21)C(CCN)C(=O)NCc1ccc(F)cc1 (stereo not given)
5. CN(CCC=C1c2ccccc2CCc2ccccc21)C(CCN)C(=O)NCc1ccccc1 (stereo not given)
6. CC(O)CC(C(=O)NCc1ccccc1)N(C)CC/C=C/c1ccccc1-c1ccccc1 (racemic; form 2)

1: 2350; 2: 3550; 3: 2270; 4: 1020; 5: 1470; 6: 3710

IC50 reading for CN(CC/C=C/c1ccccc1-c1ccc(Cl)cc1Cl)C(CCN)C(=O)NCc1ccccc1 (stereo not given) : 1430

* * *

- experimental_target: GABA transporter 2 (Mus musculus, UniProt P31651)
- Sequence (P31651 whole entry): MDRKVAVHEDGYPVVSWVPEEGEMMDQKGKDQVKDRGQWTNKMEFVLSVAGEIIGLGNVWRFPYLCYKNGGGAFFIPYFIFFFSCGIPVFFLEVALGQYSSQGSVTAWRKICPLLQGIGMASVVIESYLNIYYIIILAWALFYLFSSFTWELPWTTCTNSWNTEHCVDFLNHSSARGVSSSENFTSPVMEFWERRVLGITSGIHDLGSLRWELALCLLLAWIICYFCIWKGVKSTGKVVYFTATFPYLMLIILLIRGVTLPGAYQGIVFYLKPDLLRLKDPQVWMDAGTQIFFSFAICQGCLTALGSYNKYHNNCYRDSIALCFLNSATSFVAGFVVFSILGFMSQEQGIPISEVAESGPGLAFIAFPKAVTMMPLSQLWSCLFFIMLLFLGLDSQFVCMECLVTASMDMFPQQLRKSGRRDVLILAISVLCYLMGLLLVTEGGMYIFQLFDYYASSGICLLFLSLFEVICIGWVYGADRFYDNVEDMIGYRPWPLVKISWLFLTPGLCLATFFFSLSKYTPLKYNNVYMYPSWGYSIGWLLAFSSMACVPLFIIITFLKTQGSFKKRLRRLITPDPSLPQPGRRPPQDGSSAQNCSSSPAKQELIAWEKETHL
- test_protocol: Inhibition of mouse GAT2 transfected in HEK293 cells assessed as reduction in [3H]-GABA uptake preincubated for 25 mins followed by [3H]-GABA addition and measured after 10 mins by liquid scintillation counting analysis
- Format: cell-based
- test_conditions: read-out: pIC50 (converted)
# note: boundary value 10 µM maps to not satisfied; IC50 below it maps to satisfied

CC(=O)NCCC(C(=O)NCc1ccccc1Cl)N(C)CCOCCN1c2ccccc2Sc2ccccc21 (centres undefined)	not satisfied
CC(=O)NCCC(C(=O)NCc1ccc(F)cc1)N(C)CCOCCN1c2ccccc2Sc2ccccc21 (centres undefined)	not satisfied
CN(CCOCCN1c2ccccc2Sc2ccccc21)C(CCN)C(=O)NCc1ccccc1Cl (centres undefined)	satisfied

Okay, next one:
I'd appreciate it if you could check whether CC(=O)NCCC(C(=O)NCc1ccc(C)cc1)N(C)CCOCCN1c2ccccc2Sc2ccccc21 (centres undefined) has IC50 smaller than 10 µM.
not satisfied

* * *

- experimental_target: Sodium- and chloride-dependent GABA transporter 1 (Mus musculus)
- test_protocol: Inhibition of mouse GAT1 transfected in HEK293 cells assessed as reduction in [3H]-GABA uptake preincubated for 25 mins followed by [3H]-GABA addition and measured after 4 mins by liquid scintillation counting analysis
- Format: cell-based
- test_conditions: read-out: pIC50 (converted)
IC50 less than 30 µM is TRUE; IC50 greater than or equal to 30 µM is FALSE.

CN(CC/C=C/c1ccccc1-c1ccccc1)C(CO)C(=O)NCc1ccc(F)cc1 (stereo unspecified)	TRUE
CC(O)CC(C(=O)NCc1ccccc1Cl)N(C)CC/C=C/c1ccccc1-c1ccccc1 (racemic; form 2)	TRUE
Cc1ccc(CNC(=O)C(CCN)N(C)CCOCCN2c3ccccc3Sc3ccccc32)cc1 (stereo unspecified)	TRUE
CC(O)CC(C(=O)NCc1ccccc1)N(C)CC/C=C/c1ccccc1-c1ccccc1 (racemic; form 1)	FALSE

Turning to the following compound.
API: query returns whether the compound falls strictly under 30 µM in IC50. Query: CC(=O)NCCC(C(=O)NCc1ccc(Cl)cc1)N(C)CCOCCN1c2ccccc2Sc2ccccc21 (stereo unspecified)
TRUE

* * *

- experimental_target: Sodium- and chloride-dependent GABA transporter 1 (Mus musculus, UniProt P31648)
- test_protocol: Inhibition of mouse GAT1 transfected in HEK293 cells assessed as reduction in [3H]-GABA uptake preincubated for 25 mins followed by [3H]-GABA addition and measured after 4 mins by liquid scintillation counting analysis
- Assay type: cell-based
- test_conditions: read-out: IC50
quantity_kind: pIC50
Answers are plain numbers, as −log10 of the molar value.

For this compound ( CN(CC/C=C/c1ccccc1-c1ccc(Cl)cc1Cl)C(CCN)C(=O)NCc1ccccc1 (stereo unspecified) ), measured pIC50 is 5.26

* * *

- experimental_target: Beta-secretase 1 (Homo sapiens, UniProt P56817)
- Sequence (P56817 whole entry): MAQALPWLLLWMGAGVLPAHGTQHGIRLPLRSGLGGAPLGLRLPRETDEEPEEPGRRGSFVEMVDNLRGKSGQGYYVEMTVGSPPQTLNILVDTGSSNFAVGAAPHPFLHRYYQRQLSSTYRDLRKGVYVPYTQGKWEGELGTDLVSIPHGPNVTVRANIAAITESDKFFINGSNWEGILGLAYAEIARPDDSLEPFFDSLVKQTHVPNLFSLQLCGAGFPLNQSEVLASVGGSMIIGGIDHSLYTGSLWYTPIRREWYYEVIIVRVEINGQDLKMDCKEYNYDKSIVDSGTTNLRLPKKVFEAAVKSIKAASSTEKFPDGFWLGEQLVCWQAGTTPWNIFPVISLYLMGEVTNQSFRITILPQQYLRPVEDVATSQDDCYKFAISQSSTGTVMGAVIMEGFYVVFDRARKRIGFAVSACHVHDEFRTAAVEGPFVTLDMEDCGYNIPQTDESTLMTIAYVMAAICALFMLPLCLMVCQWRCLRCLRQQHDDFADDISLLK
- test_conditions: dose 50.0 µM, time 60.0 min
Short version: inhibition at least 40% is yes, less is no.

Recorded results for 8 compounds are shown here.
CN(CCC=C1c2ccccc2CCc2ccccc21)C(CCO)C(=O)NCc1ccccc1 (stereo not given)	no
CN(CCOCCn1c2ccccc2c2ccccc21)C(CCO)C(=O)NCc1ccc(F)cc1 (stereo not given)	yes
CC(=O)NCCC(C(=O)NCc1ccccc1)N(C)CCC=C1c2ccccc2CCc2ccccc21 (stereo not given)	no
CN(CCC=C1c2ccccc2C=Cc2ccccc21)C(CCO)C(=O)NCc1ccccc1 (stereo not given)	no
CN(CCOCCn1c2ccccc2c2ccccc21)C(CCO)C(=O)NCc1ccccc1Cl (stereo not given)	yes
CN(CCOCCn1c2ccccc2c2ccccc21)C(CCN)C(=O)NCc1ccccc1Cl (stereo not given)	yes
CN(CCC=C1c2ccccc2C=Cc2ccccc21)C(CO)C(=O)NCc1ccc(F)cc1 (stereo not given)	no
CN(CCC=C1c2ccccc2CCc2ccccc21)C(CCO)C(=O)NCc1ccccc1Cl (stereo not given)	yes

Please turn your attention to the following entry.
Item CC(=O)NCCC(C(=O)NCc1ccc(F)cc1)N(C)CCC=C1c2ccccc2CCc2ccccc21 (stereo not given) with inhibition of 40% or above?
yes
